Measured pKd, listed per entry.
Molecular target: BRAF V600E (Homo sapiens, UniProt P15056, V600E)
Sequence (P15056 whole entry V600E): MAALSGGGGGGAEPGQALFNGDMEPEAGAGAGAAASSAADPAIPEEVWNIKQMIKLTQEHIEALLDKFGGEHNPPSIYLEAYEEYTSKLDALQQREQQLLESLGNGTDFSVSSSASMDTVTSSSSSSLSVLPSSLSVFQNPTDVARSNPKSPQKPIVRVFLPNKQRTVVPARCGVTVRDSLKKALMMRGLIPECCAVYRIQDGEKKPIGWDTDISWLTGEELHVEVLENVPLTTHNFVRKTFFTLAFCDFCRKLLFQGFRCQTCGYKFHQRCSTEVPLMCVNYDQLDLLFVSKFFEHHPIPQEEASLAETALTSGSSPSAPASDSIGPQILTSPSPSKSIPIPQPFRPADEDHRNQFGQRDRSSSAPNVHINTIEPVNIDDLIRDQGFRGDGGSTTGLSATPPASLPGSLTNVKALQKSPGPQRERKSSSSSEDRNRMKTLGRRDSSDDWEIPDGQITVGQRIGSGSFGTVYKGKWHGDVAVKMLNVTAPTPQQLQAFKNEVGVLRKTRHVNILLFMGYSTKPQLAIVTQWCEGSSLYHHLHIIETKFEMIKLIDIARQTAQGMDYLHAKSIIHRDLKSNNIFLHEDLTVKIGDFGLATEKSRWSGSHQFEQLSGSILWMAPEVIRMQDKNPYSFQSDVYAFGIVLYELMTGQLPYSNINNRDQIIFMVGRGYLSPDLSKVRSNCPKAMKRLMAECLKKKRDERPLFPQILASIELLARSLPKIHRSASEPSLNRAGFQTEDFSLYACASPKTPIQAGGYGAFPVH
Assay: biochemical
# pKd is unitless: minus log10 of the molar concentration; print number only

Name the reported pKd value associated with the compound Cn1cnc2ccc(Oc3c(F)ccc(NS(=O)(=O)N4CC[C@@H](F)C4)c3C#N)cc2c1=O
8.92

# next compound below
Name the reported pKd value associated with the compound Cn1cnc2ccc(Oc3c(F)ccc(NS(=O)(=O)N4CC[C@H](F)C4)c3C#N)cc2c1=O
9.05

---

Target: UniProt P06239
Sequence (P06239 whole entry): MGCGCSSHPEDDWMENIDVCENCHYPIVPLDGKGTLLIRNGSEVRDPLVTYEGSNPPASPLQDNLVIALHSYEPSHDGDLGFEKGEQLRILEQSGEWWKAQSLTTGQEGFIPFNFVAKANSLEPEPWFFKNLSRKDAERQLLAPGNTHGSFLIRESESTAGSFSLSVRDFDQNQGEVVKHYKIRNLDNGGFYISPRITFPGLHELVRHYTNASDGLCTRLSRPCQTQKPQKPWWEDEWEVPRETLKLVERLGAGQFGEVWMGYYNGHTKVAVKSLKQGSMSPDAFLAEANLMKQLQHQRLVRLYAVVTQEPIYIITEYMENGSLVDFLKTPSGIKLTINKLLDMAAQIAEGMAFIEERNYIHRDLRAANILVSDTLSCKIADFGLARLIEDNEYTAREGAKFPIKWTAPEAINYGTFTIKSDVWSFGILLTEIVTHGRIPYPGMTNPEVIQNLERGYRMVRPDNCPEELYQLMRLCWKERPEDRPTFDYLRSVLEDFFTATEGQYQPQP
observable: pKd
# pKd is unitless: minus log10 of the molar concentration; print number only

Test system UniProt P06239; read-out pKd; what value for Cn1cnc2ccc(Oc3c(F)ccc(NS(=O)(=O)N4CC[C@@H](F)C4)c3C#N)cc2c1=O ?
4.40

---

Biological target: CRAF (Homo sapiens, UniProt P04049)
Sequence (P04049 whole entry): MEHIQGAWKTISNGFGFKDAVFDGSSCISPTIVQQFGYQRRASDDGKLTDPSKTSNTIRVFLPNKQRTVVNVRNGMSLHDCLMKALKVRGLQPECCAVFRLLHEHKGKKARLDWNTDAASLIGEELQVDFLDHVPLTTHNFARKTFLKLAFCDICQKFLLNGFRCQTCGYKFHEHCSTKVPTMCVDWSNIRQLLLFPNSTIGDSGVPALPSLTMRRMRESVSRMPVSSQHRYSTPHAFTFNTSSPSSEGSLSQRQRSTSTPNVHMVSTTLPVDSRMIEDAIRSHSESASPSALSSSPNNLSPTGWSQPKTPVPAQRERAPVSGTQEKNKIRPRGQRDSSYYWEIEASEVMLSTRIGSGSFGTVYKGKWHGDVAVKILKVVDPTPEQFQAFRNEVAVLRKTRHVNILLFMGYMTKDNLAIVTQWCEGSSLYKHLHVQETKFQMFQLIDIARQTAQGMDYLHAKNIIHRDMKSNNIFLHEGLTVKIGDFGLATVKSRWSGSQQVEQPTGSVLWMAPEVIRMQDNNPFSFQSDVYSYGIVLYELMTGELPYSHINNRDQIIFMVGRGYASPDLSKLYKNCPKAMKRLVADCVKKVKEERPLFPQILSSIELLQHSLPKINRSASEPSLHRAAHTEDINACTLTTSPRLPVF
observable: Kd
Put down the number, then write its unit next to it.

Test system CRAF (Homo sapiens, UniProt P04049); read-out Kd; what value for Cn1cnc2ccc(Oc3c(F)ccc(NS(=O)(=O)N4CC[C@@H](F)C4)c3C#N)cc2c1=O [(Ia)] ?
1.7 nM
